- System: E. multilocularis metacestodes
- assay.method.text: PGI-assay: drug-induced damage on in vitro cultured metacestodes (Pathogen Box screening cascade and EC50)
- Type: cell-based, Echinococcus multilocularis
- condition.details: Echinococcus multilocularis, 288 h; 10 µM, singlets, 12 days of incubation; read-out: PGI release, % of the Tx-100 control, 12d
Exercise: state measured cytotoxicity at 10 µM for each of the compounds provided.
Answers are plain numbers, in %.

CC(=O)NC[C@H]1CN(c2ccc(N3CCSCC3)c(F)c2)C(=O)O1 [MMV688756, Sutezolid, reference compound] : -0.37
NCC[C@H](O)C(=O)N[C@@H]1C[C@H](N)[C@@H](O[C@H]2O[C@H](CN)[C@@H](O)[C@H](O)[C@H]2O)[C@H](O)[C@H]1O[C@H]1O[C@H](CO)[C@@H](O)[C@H](N)[C@H]1O [MMV687796, Amikacin, reference compound] : -4.62
C[C@H]1c2cccc(O)c2C(=O)C2=C(O)[C@]3(O)C(=O)C(C(N)=O)=C(O)[C@@H](N(C)C)[C@@H]3[C@@H](O)[C@@H]21 [MMV000011, Doxycycline, reference compound] : -0.0343
CCN(CC)CCCCCCNc1cc(OC)cc2c(C)ccnc12 [MMV000063, Sitamaquine, reference compound] : 10.8
O=C(C1CCCCC1)N1CC(=O)N2CCc3ccccc3C2C1 (centres unmarked) [MMV002529, Praziquantel, reference compound] : -0.49
CC(C)/N=c1\cc2n(-c3ccc(Cl)cc3)c3ccccc3nc-2cc1Nc1ccc(Cl)cc1 [MMV687800, Clofazimine, reference compound] : 65.6
CCN(CC)C(=O)N1CCN(C)CC1 [MMV002816, Diethylcarbamazine, reference compound] : -1.56
CO[C@H]1/C=C/O[C@@]2(C)Oc3c(C)c(O)c4c(O)c(c(/C=N/N5CCN(C)CC5)c(O)c4c3C2=O)NC(=O)/C(C)=C\C=C\[C@H](C)[C@H](O)[C@@H](C)[C@@H](O)[C@@H](C)[C@H](OC(C)=O)[C@@H]1C [MMV688775, Rifampicin, reference compound] : -1.35
COc1cc(NC(C)CCCN)c2ncccc2c1 (centres unmarked) [MMV000023, Primaquine, reference compound] : 17.6
CC(=O)Oc1ccccc1C(=O)Nc1ncc([N+](=O)[O-])s1 [MMV688991, Nitazoxanide, reference compound] : 75.5

// moving on: another record for cytotoxicity at 10 µM
Q) Given Cc1ccc(C(=O)Nc2ccc(S(=O)(=O)O)c3cc(S(=O)(=O)O)cc(S(=O)(=O)O)c23)cc1NC(=O)c1cccc(NC(=O)Nc2cccc(C(=O)Nc3cc(C(=O)Nc4ccc(S(=O)(=O)O)c5cc(S(=O)(=O)O)cc(S(=O)(=O)O)c45)ccc3C)c2)c1 [MMV637953, Suramin, reference compound] , state its recorded cytotoxicity at 10 µM.
A) 0.51

----------
- Test system: E. multilocularis metacestodes
- assay.method.text: PGI-assay: drug-induced damage on in vitro cultured metacestodes (Pathogen Box screening cascade and EC50)
- Type: cell-based, Echinococcus multilocularis
- condition.details: comparison of EC50 with IC50 on mammalian cells
property.measured: toxicity against E. multilocularis metacestodes compared with host cells (HFF, RH)

CC(C)(C)[C@H]1CC[C@H](CC2=C(O)C(=O)c3ccccc3C2=O)CC1 : specific toxicity
Cc1[nH]c2cc(F)cc(F)c2c(=O)c1-c1ccc(Oc2ccc(OC(F)(F)F)cc2)cc1 : specific toxicity

----------
- Tested on: E. multilocularis metacestodes
- assay.method.text: PGI-assay: drug-induced damage on in vitro cultured metacestodes (Pathogen Box screening cascade and EC50)
- Format: cell-based, Echinococcus multilocularis
- condition.details: Echinococcus multilocularis, 120 h; PGI-assay, 5 days in vitro; read-out: E. multilocularis EC50
property.measured: EC50 (µM)
Numbers only, in µM.

Q) Which EC50 is listed for CC(C)(C)[C@H]1CC[C@H](CC2=C(O)C(=O)c3ccccc3C2=O)CC1 [MMV689480, Buparvaquone] ?
A) 2.87

----------
- Tested on: E. multilocularis metacestodes
- assay.method.text: PGI-assay: drug-induced damage on in vitro cultured metacestodes (Pathogen Box screening cascade and EC50)
- Format: cell-based, Echinococcus multilocularis
- condition.details: Echinococcus multilocularis, 288 h; 10 µM, singlets, 12 days of incubation; read-out: PGI release, % of the Tx-100 control, 12d
property.measured: cytotoxicity at 10 µM (%)
Numbers only, in %.

# count of solved cases: 2
COC(=O)Nc1nc2ccc(C(=O)c3ccccc3)cc2[nH]1 [MMV003152, Mebendazole, reference compound] : 11.9
CCCCCCCCCCCCCCCCOP(=O)([O-])OCC[N+](C)(C)C [MMV688990, Miltefosine, reference compound] : -5.17

Give me cytotoxicity at 10 µM for each of these compounds, listed below.
1. N=C(N)c1ccc(OCCCCCOc2ccc(C(=N)N)cc2)cc1 [MMV000062, Pentamidine, reference compound]
2. CC(C)(C)[C@H]1CC[C@H](CC2=C(O)C(=O)c3ccccc3C2=O)CC1
3. CC[C@@H](CO)NCCN[C@@H](CC)CO [MMV687801, Ethambutol, reference compound]
4. OC(c1cc(C(F)(F)F)nc2c(C(F)(F)F)cccc12)C1CCCCN1 (stereo not shown) [MMV000016, Mefloquine, reference compound]
5. CC(=O)NC[C@H]1CN(c2ccc(N3CCOCC3)c(F)c2)C(=O)O1 [MMV687803, Linezolid, reference compound]
6. C[C@]1(O)C[C@@H](c2nc(-c3ccc4ccc(-c5ccccc5)nc4c3)c3c(N)nccn32)C1 [MMV676605, Linsitinib, reference compound]
7. CC1CS(=O)(=O)CCN1/N=C/c1ccc([N+](=O)[O-])o1 (stereo not shown) [MMV001499, Nifurtimox, reference compound]

A)
1. -1.06
2. 38.6
3. 0.29
4. 23.3
5. 0.38
6. 0.47
7. 3.97

----------
- Test system: E. multilocularis metacestodes
- assay.method.text: PGI-assay: drug-induced damage on in vitro cultured metacestodes (Pathogen Box screening cascade and EC50)
- Type: cell-based, Echinococcus multilocularis
- condition.details: Echinococcus multilocularis, 288 h; 10 µM, singlets, 12 days of incubation; read-out: PGI release, % of the Tx-100 control, 12d
property.measured: cytotoxicity at 10 µM (%)
Answers are plain numbers, in %.

Recorded results for 4 compounds are shown here.
CON=C(C(=O)OC)c1ccccc1CON=C(C)c1cccc(C(F)(F)F)c1 : -5.74
C[C@@H]1[C@H](O)[C@@H](C)/C=C/C=C/C=C/C=C/C=C/C=C/C=C/[C@H](O[C@@H]2O[C@H](C)[C@@H](O)[C@H](N)[C@@H]2O)C[C@@H]2O[C@](O)(C[C@@H](O)C[C@@H](O)[C@H](O)CC[C@@H](O)C[C@@H](O)CC(=O)O[C@H]1C)C[C@H](O)[C@H]2C(=O)O [MMV689000, Amphotericin B, reference compound] : 51.2
O=[N+]([O-])c1cn2c(n1)OC[C@@H](OCc1ccc(OC(F)(F)F)cc1)C2 [MMV688755, Pretomanid, reference compound] : -1.01
O=C(Cn1ccnc1[N+](=O)[O-])NCc1ccccc1 [MMV688773, Benznidazole, reference compound] : 1.37

I'm hoping you can list cytotoxicity at 10 µM for every compound here, please.
1. CC(=O)NC[C@H]1CN(c2ccc(-c3ccc(CNCc4cnn[nH]4)cc3)c(F)c2)C(=O)O1 [MMV688327, Radezolid, reference compound]
2. CO[C@@H](C(=O)N1Cc2n[nH]c(NC(=O)c3ccc(N4CCN(C)CC4)cc3)c2C1)c1ccccc1 [MMV676600, Danusertib, reference compound]

A)
1. -1.52
2. -0.2

----------
- Test system: E. multilocularis metacestodes
- assay.method.text: PGI-assay: drug-induced damage on in vitro cultured metacestodes (Pathogen Box screening cascade and EC50)
- Format: cell-based, Echinococcus multilocularis
- condition.details: Echinococcus multilocularis, 120 h; confirmatory screening at 10 µM in triplicates, 5 days of incubation, values as % of Tx-100 control; read-out: PGI release, % of Tx-100 control, average, 5d
property.measured: PGI release, % of Tx-100 control at 10 µM (%)
Numbers only, in %.

Here are 4 compounds together with their reported answers.
CC(=O)Oc1ccccc1C(=O)Nc1ncc([N+](=O)[O-])s1 [MMV688991, Nitazoxanide, reference compound] : 54.7
C[C@@H]1[C@H](O)[C@@H](C)/C=C/C=C/C=C/C=C/C=C/C=C/C=C/[C@H](O[C@@H]2O[C@H](C)[C@@H](O)[C@H](N)[C@@H]2O)C[C@@H]2O[C@](O)(C[C@@H](O)C[C@@H](O)[C@H](O)CC[C@@H](O)C[C@@H](O)CC(=O)O[C@H]1C)C[C@H](O)[C@H]2C(=O)O [MMV689000, Amphotericin B, reference compound] : -1.34
OC(c1cc(C(F)(F)F)nc2c(C(F)(F)F)cccc12)C1CCCCN1 (centres unmarked) [MMV000016, Mefloquine, reference compound] : 7.4
CC(C)(C)[C@H]1CC[C@H](CC2=C(O)C(=O)c3ccccc3C2=O)CC1 : 41.2

// below: PGI release, % of Tx-100 control at 10 µM requested for another compound
Q) Any idea what PGI release, % of Tx-100 control at 10 µM was measured for CC(C)/N=c1\cc2n(-c3ccc(Cl)cc3)c3ccccc3nc-2cc1Nc1ccc(Cl)cc1 [MMV687800, Clofazimine, reference compound] ?
A) -0.59

Attribution: paper PMC6216040
